Recorded koff by entry
target: T1, cynomolgus soluble urokinase plasminogen activator receptor (suPAR) (cynomolgus, UniProt Q9GK78 23-303, limits assumed); test: BLI (Octet) off-rate screen of scFv clones
T1 construct: Column head says only 'cynomologus'; also called cynomolgus suPAR; cynomolgus uPAR
T1 sequence (Q9GK78 23-303 limits assumed): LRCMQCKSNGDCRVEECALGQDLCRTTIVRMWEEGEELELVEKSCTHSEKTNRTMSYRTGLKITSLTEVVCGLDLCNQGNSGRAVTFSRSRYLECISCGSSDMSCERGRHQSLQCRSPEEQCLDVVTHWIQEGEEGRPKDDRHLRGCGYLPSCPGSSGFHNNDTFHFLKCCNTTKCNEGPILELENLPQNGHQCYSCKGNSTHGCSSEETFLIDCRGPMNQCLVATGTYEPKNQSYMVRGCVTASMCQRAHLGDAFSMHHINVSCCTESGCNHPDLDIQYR
measured_metric: koff (s⁻¹)

binder	measured_metric	observed_result
suPAR_DB05_C09 (scFv, V domains shown, Screened as scFv) VH: QVQLVQSGAEVKKPGASVKVSCKASGYTFTGYYMHWVRQAPGQGLEWMGWISPDSGATKVAQKFQGRVTMTRDTSTSTVYMELSSLRSEDTAVYYCARGYDVDWFVYWGQGTLVTVSS VL: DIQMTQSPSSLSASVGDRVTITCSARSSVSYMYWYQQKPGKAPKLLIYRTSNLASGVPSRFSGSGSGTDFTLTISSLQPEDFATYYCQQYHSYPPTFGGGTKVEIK	koff	0.000464
suPAR_DB05_C02 (scFv, V domains shown, Screened as scFv) VH: QVQLVQSGAEVKKPGASVKVSCKASGDTFTSYYMHWVRQAPGQGLEWMGWIDPSNGNTIYDQKFQGRVTMTRDTSTSTVYMELSSLRSEDTAVYYCARGYDVDWFVYWGQGTLVTVSS VL: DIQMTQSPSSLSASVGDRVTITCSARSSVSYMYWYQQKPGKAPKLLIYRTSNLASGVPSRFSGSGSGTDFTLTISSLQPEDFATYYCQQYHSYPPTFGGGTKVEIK	koff	0.00061
suPAR_DB05_E01 (scFv, V domains shown, Screened as scFv) VH: QVQLVQSGAEVKKPGASVKVSCKASGYTFTNYYMHWVRQAPGQGLEWMGWIDHENGNTIYDQKFQGRVTMTRDTSTSTVYMELSSLRSEDTAVYYCARGYDVDWFVYWGQGTLVTVSS VL: DIQMTQSPSSLSASVGDRVTITCRARSSVSYMYWYQQKPGKAPKLLIYRTSNLASGVPSRFSGSGSGTDFTLTISSLQPEDFATYYCQQYHSYPPTFGGGTKVEIK	koff	0.000767
suPAR_DB05_B06 (scFv, V domains shown, Screened as scFv) VH: QVQLVQSGAEVKKPGASVKVSCKASGYPFTNYYMHWVRQAPGQGLEWMGWIDHEGGSTIYDQKFQGRVTMTRDTSTSTVYMELSSLRSEDTAVYYCARGYDVDWFVYWGQGTLVTVSS VL: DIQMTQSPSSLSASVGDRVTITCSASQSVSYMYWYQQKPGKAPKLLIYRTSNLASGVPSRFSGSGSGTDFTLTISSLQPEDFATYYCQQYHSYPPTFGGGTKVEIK	koff	0.000234
suPAR_DB04_H08 (scFv, V domains shown, Screened as scFv) VH: QVQLVQSGAEVKKPGASVKVSCKASGYTFSDYYIHWVRQAPGQGLEWMGWISPKSGVTNYAQKFQGRVTMTRDTSTSTVYMELSSLRSEDTAVYYCARGYDVDWFVYWGQGTLVTVSS VL: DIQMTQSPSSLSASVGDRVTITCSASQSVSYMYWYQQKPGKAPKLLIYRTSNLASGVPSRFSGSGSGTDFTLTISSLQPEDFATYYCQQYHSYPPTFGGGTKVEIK	koff	5.42e-07
